Target: cytoplasmic kinase domain of human IGF-1R (IGF-1R-GST) (Homo sapiens, UniProt P08069)
Construct: cytoplasmic kinase domain of human IGF-1R (amino acids 964-1370); GST (glutathione-S-transferase)
Sequence (P08069 964-1367 limits assumed): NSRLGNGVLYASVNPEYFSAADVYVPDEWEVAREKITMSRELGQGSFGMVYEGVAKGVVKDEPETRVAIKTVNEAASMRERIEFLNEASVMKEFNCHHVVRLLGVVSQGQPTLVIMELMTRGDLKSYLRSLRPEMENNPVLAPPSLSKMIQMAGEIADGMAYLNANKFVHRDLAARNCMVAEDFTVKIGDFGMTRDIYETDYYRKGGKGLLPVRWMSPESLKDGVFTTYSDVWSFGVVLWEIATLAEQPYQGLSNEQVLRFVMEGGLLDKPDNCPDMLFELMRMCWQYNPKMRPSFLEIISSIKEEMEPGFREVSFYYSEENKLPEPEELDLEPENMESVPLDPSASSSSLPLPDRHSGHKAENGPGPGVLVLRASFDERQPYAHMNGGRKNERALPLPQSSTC
Assay: Insulin-like growth factor-1 receptor (IGF-1R) kinase assay (DELFIA)
Settings: IGF-1R-GST kinase activity, read-out: IGF1R IC50
Quantity measured: IC50 (nM)

Field: example entries. Status: answers known.
[
  {
    "Molecule": "CN1CCN(c2ccc(Nc3ncc(Cl)c(NCc4cccc5c4C(C)(C)C(=O)N5)n3)cc2)CC1",
    "System tested": "cytoplasmic kinase domain of human IGF-1R (IGF-1R-GST) (Homo sapiens, UniProt P08069)",
    "Unit of measure": "nM",
    "IC50": 14
  },
  {
    "Molecule": "CN(CC(=O)N1CCC(c2ccc(Nc3ncc(Cl)c(NCc4cccc5c4C(C)(C)C(=O)N5)n3)cc2)CC1)C(=O)OC(C)(C)C",
    "System tested": "cytoplasmic kinase domain of human IGF-1R (IGF-1R-GST) (Homo sapiens, UniProt P08069)",
    "Unit of measure": "nM",
    "IC50": 29
  },
  {
    "Molecule": "CNCC(=O)N1CCC(c2ccc(Nc3ncc(Cl)c(NCc4cccc5c4C(C)(C)C(=O)N5)n3)cc2)CC1",
    "System tested": "cytoplasmic kinase domain of human IGF-1R (IGF-1R-GST) (Homo sapiens, UniProt P08069)",
    "Unit of measure": "nM",
    "IC50": 2
  },
  {
    "Molecule": "COc1cc(N2CCN(C3CCN(C(C)C)CC3)CC2)ccc1Nc1ncc(C(F)(F)F)c(NCc2cccc3c2CC(=O)N3)n1",
    "System tested": "cytoplasmic kinase domain of human IGF-1R (IGF-1R-GST) (Homo sapiens, UniProt P08069)",
    "Unit of measure": "nM",
    "IC50": 18
  },
  {
    "Molecule": "CN(C)CCCC(=O)N1CCC(c2ccc(Nc3ncc(C(F)(F)F)c(NCc4cccc5c4C(C)(C)C(=O)N5)n3)cc2)CC1",
    "System tested": "cytoplasmic kinase domain of human IGF-1R (IGF-1R-GST) (Homo sapiens, UniProt P08069)",
    "Unit of measure": "nM",
    "IC50": 2
  }
]

A = COc1cc(C2CCN(C)CC2)ccc1Nc1ncc(Cl)c(NCc2cccc3c2C(C)(C)C(=O)N3)n1
B = CCOc1cc(N2CCN(C)CC2)ccc1Nc1ncc(C(F)(F)F)c(NCc2cccc3c2CC(=O)N3)n1
C = CNC1CCN(c2ccc(Nc3ncc(C(F)(F)F)c(NCc4cccc5c4CC(=O)N5)n3)c(OC)c2)CC1
D = COc1cc(N2CCC(N3CCN(S(C)(=O)=O)CC3)CC2)ccc1Nc1ncc(C(F)(F)F)c(NCc2cccc3c2CC(=O)N3)n1
In this exercise, place the 4 molecules in ascending sequence of their recorded IC50. # answer = labels listed in requested order
A, C, D, B
(A: 2 nM, C: 4 nM, D: 9 nM, B: 13 nM)

---

Target: cytoplasmic kinase domain of human IGF-1R (IGF-1R-GST) (Homo sapiens)
Construct: cytoplasmic kinase domain of human IGF-1R (amino acids 964-1370); GST (glutathione-S-transferase)
Assay: Insulin-like growth factor-1 receptor (IGF-1R) kinase assay (DELFIA)
Details: IGF-1R-GST kinase activity, read-out: IGF1R IC50
pIC50: −log10 of the molar value.
Quantity measured: pIC50

[
  {
    "Compound": "CNC1(C(=O)N2CCCC(c3ccc(Nc4ncc(Br)c(NCc5cccc6c5C(C)(C)C(=O)N6)n4)c(C)c3)C2)CC1 (racemic)",
    "pIC50": 8.22
  },
  {
    "Compound": "COc1cc(N2CCC(N(C)CCN(C)C)CC2)ccc1Nc1ncc(C(F)(F)F)c(NCc2cccc3c2CC(=O)N3)n1",
    "pIC50": 8.70
  },
  {
    "Compound": "CCN1CCC(N2CCN(c3ccc(Nc4ncc(C(F)(F)F)c(NCc5cccc6c5CC(=O)N6)n4)c(OC)c3)CC2)CC1",
    "pIC50": 8.40
  },
  {
    "Compound": "COc1cc(N2CCN(C3CCOCC3)CC2)ccc1Nc1ncc(C(F)(F)F)c(NCc2cccc3c2CC(=O)N3)n1",
    "pIC50": 7.96
  },
  {
    "Compound": "Cc1cc(C2CCN(C(=O)CO)CC2)ccc1Nc1ncc(Cl)c(NCc2cccc3c2C(C)(C)C(=O)N3)n1",
    "pIC50": 8.15
  }
]

a = Cc1cc(N2CCN(CC(C)(C)O)CC2)ccc1Nc1ncc(Br)c(NCc2cccc3c2C(C)(C)C(=O)N3)n1
b = CC1(C)C(=O)Nc2cccc(CNc3nc(Nc4ccc(C5CCN(C(=O)C6CCN6)CC5)cc4)ncc3Br)c21 (stereo not drawn)
c = CN(C)CC(=O)N1CCC(c2ccc(Nc3ncc(Br)c(NCc4cccc5c4C(C)(C)C(=O)N5)n3)cc2)CC1
d = CC1(C)C(=O)Nc2cccc(CNc3nc(Nc4ccc(C5CCN(CCS(C)(=O)=O)CC5)cc4)ncc3Cl)c21
Put the items in sequence by pIC50, from largest down. # answer = labels listed in requested order
c, b, a, d

---

Molecular target: cytoplasmic kinase domain of human IGF-1R (IGF-1R-GST) (Homo sapiens)
Construct: cytoplasmic kinase domain of human IGF-1R (amino acids 964-1370); GST (glutathione-S-transferase); made in house; host or cells: High Five insect cells (Invitrogen)
Test: Insulin-like growth factor-1 receptor (IGF-1R) kinase assay (DELFIA)
Type: biochemical
Conditions: IGF-1R-GST kinase activity, read-out: IGF1R IC50
pIC50: −log10 of the molar value.
Quantity measured: pIC50

[
  {
    "Compound": "CCOc1cc(N2CCN(C3COC3)CC2)ccc1Nc1ncc(C(F)(F)F)c(NCc2cccc3c2CC(=O)N3)n1",
    "pIC50": 7.72
  },
  {
    "Compound": "COc1cc(N2CCN(C3CCN(C)CC3)CC2)ccc1Nc1ncc(C(F)(F)F)c(NCc2cccc3c2C(C)(C)C(=O)N3C)n1",
    "pIC50": 8.70
  },
  {
    "Compound": "COc1cc(N2CCN(C(C)C)CC2)ccc1Nc1ncc(C(F)(F)F)c(NCc2cccc3c2C(C)(C)C(=O)N3)n1",
    "pIC50": 8.70
  },
  {
    "Compound": "Cc1cc(C2CCCN(CCO)C2)ccc1Nc1ncc(C(F)(F)F)c(NCc2cccc3c2C(C)(C)C(=O)N3)n1 (racemic)",
    "pIC50": 9.00
  },
  {
    "Compound": "COc1cc(N2CCN(C(=O)C3CCN(C)CC3)CC2)ccc1Nc1ncc(Cl)c(NCc2cccc3c2C(C)(C)C(=O)N3)n1",
    "pIC50": 8.52
  }
]

P = COC(=O)N1CC2CC1CN2c1ccc(Nc2ncc(C(F)(F)F)c(NCc3cccc4c3C(C)(C)C(=O)N4)n2)c(OC)c1 (stereo not shown)
Q = COc1cc(N2CCN(CCF)CC2)ccc1Nc1ncc(C(F)(F)F)c(NCc2cccc3c2CC(=O)N3)n1
Which item exceeds the other in pIC50, P or Q ? Give the label under which the chosen entry appears.
Q

---

Biological target: cytoplasmic kinase domain of human IGF-1R (IGF-1R-GST) (Homo sapiens)
Construct: cytoplasmic kinase domain of human IGF-1R (amino acids 964-1370); GST (glutathione-S-transferase)
Test: Insulin-like growth factor-1 receptor (IGF-1R) kinase assay (DELFIA)
Details: IGF-1R-GST kinase activity, read-out: IGF1R IC50
Quantity measured: IC50 (nM)

Field: example entries. Status: answers known.
[
  {
    "Molecule": "CCN1CC2CC1CN2c1ccc(Nc2ncc(C(F)(F)F)c(NCc3cccc4c3C(C)(C)C(=O)N4)n2)c(OC)c1 (stereo not drawn)",
    "Quantity measured": "IC50",
    "Value observed": 2
  },
  {
    "Molecule": "COCCN1CCCC(c2ccc(Nc3ncc(C(F)(F)F)c(NCc4cccc5c4C(C)(C)C(=O)N5)n3)c(C)c2)C1 (racemic)",
    "Quantity measured": "IC50",
    "Value observed": 0.8
  }
]

a = CC(C)(O)CN1CCC(c2ccc(Nc3ncc(Cl)c(NCc4cccc5c4C(C)(C)C(=O)N5)n3)c(OC(F)(F)F)c2)CC1
b = COc1cc(C2CCN(C(=O)CN(C)C)CC2)ccc1Nc1ncc(Cl)c(NCc2cccc3c2C(C)(C)C(=O)N3)n1
c = Cc1cc(C2CCN(CCS(C)(=O)=O)CC2)ccc1Nc1ncc(Cl)c(NCc2cccc3c2C(C)(C)C(=O)N3)n1
d = COCCN1CCCC(c2ccc(Nc3ncc(C(F)(F)F)c(NCc4cccc5c4C(C)(C)C(=O)N5)n3)c(OC)c2)C1 (racemic)
Put the items in sequence by IC50, from largest down. # answer = labels listed in requested order
a, c, b, d
(a: 11 nM, c: 2 nM, b: 1 nM, d: 0.5 nM)
